tested on: Glycine max; test: Inhibition of soybean LOX at 0.1 mM
Active and inactive are the calls of the source. No cut-off for these calls is given here.
RECORDED_ENDPOINT: inhibition

Examples from the recorded data:
| COMPOUND | inhibition |
| --- | --- |
| COc1cccc(C2=Nc3nc4ccccc4n3C(C)(c3cccc(OC)c3)C2=O)c1 (configuration not stated) | inactive |
| COc1cccc(/C(C)=N/c2nc3ccccc3[nH]2)c1 | 42% |
| CC1(c2ccc(Br)cc2)C(=O)C(c2ccc(Br)cc2)=Nc2nc3ccccc3n21 (configuration not stated) | 61% |
| CC1(c2ccccc2)C(=O)C(c2ccccc2)=Nc2nc3ccccc3n21 (configuration not stated) | 100% |
| C/C(=N\c1nc2ccccc2[nH]1)c1ccc(C)cc1 | inactive |

Task: # lookup: inhibition of C/C(=N\c1nc2ccccc2[nH]1)c1ccc(Cl)cc1
Result: 85%

Task: # lookup: inhibition of C/C(=N\c1nc2ccccc2[nH]1)c1ccc(Br)cc1
Result: 18%

Task: # lookup: inhibition of CC1(c2cccc(Br)c2)C(=O)C(c2cccc(Br)c2)=Nc2nc3ccccc3n21 (configuration not stated)
Result: 12%

Task: # lookup: inhibition of C/C(=N\c1nc2ccccc2[nH]1)c1cccc(C)c1
Result: 8%

Task: # lookup: inhibition of CC(Cc1ccc(O)c(O)c1)C(C)Cc1ccc(O)c(O)c1 (configuration not stated)
Result: 84%

Task: # lookup: inhibition of Cc1cccc(C2=Nc3nc4ccccc4n3C(C)(c3cccc(C)c3)C2=O)c1 (configuration not stated)
Result: 19%

Task: # lookup: inhibition of C/C(=N\c1nc2ccccc2[nH]1)c1ccccc1
Result: inactive

###

experiment: Antioxidant activity assessed as protection against […]-induced linoleic acid lipid peroxidation 0.1 mM; format: functional
RECORDED_ENDPOINT: inhibition (%)
Give the quantity in %, number only.

Examples from the recorded data:
| COMPOUND | inhibition [%] |
| --- | --- |
| C/C(=N\c1nc2ccccc2[nH]1)c1cccc(C)c1 | 77 |
| C/C(=N\c1nc2ccccc2[nH]1)c1ccc(Br)cc1 | 50 |
| CC1(c2ccc(Cl)cc2)C(=O)C(c2ccc(Cl)cc2)=Nc2nc3ccccc3n21 (stereo unspecified) | 97 |
| CC1(c2ccc(Br)cc2)C(=O)C(c2ccc(Br)cc2)=Nc2nc3ccccc3n21 (stereo unspecified) | 78 |
| COc1cccc(C2=Nc3nc4ccccc4n3C(C)(c3cccc(OC)c3)C2=O)c1 (stereo unspecified) | 100 |
| COc1ccc(/C(C)=N/c2nc3ccccc3[nH]2)cc1 | 68 |
| COc1cccc(/C(C)=N/c2nc3ccccc3[nH]2)c1 | 100 |
| Cc1cccc(C2=Nc3nc4ccccc4n3C(C)(c3cccc(C)c3)C2=O)c1 (stereo unspecified) | 84 |

Now take the following compound into account.
Task: # lookup: inhibition of C/C(=N\c1nc2ccccc2[nH]1)c1cccc(Br)c1
Result: 97

###

assay: Cytotoxicity against human lung fibroblast assessed as cell viability at 0.03 to 0.037 mM after 24 hrs by MTT assay; assay type: cell-based; conditions: human lung fibroblasts, in the assay text read “0.003 to 0.037 mM” for “0.03 to 0.037 mM”, read-out: Activity
RECORDED_ENDPOINT: viability at 24 h, up to 37 µM (%)
Give the quantity in %, number only.

Task: # lookup: viability at 24 h, up to 37 µM of COc1ccc(/C(C)=N/c2nc3ccccc3[nH]2)cc1
Result: 56

###

assay: Cytotoxicity against human lung fibroblast assessed as cell viability at 0.17 mM after 24 hrs by MTT assay; type: cell-based; settings: human lung fibroblasts, read-out: Activity
RECORDED_ENDPOINT: viability at 24 h, 170 µM (%)
Give the quantity in %, number only.

Task: # lookup: viability at 24 h, 170 µM of C/C(=N\c1nc2ccccc2[nH]1)c1ccc2ccccc2c1
Result: 62.5

###

tested on: Glycine max; test: Inhibition of soybean LOX at 0.1 mM
Calls of active or inactive are those of the source. The rule behind the calls is not given here.
RECORDED_ENDPOINT: inhibition

Examples from the recorded data:
| COMPOUND | inhibition |
| --- | --- |
| Cc1ccc(C2=Nc3nc4ccccc4n3C(C)(c3ccc(C)cc3)C2=O)cc1 (stereo not given) | 40% |
| C/C(=N\c1nc2ccccc2[nH]1)c1ccc2ccccc2c1 | 98% |
| COc1ccc(/C(C)=N/c2nc3ccccc3[nH]2)cc1 | 65% |
| CC1(c2ccc(Cl)cc2)C(=O)C(c2ccc(Cl)cc2)=Nc2nc3ccccc3n21 (stereo not given) | inactive |

Now take the following compound into account.
Task: # lookup: inhibition of C/C(=N\c1nc2ccccc2[nH]1)c1cccc(Br)c1
Result: inactive

###

inhibition values for the compounds below.
assay: Antioxidant activity assessed as protection against […]-induced linoleic acid lipid peroxidation 0.1 mM; assay type: functional
Give the quantity in %, number only.

Examples from the recorded data:
| COMPOUND | VALUE_UNIT | inhibition |
| --- | --- | --- |
| C/C(=N\c1nc2ccccc2[nH]1)c1ccc2ccccc2c1 | % | 97 |
| C/C(=N\c1nc2ccccc2[nH]1)c1ccc(Cl)cc1 | % | 26 |
| Cc1c(C)c2c(c(C)c1O)CCC(C)(C(=O)O)O2 (configuration not stated) | % | 63 |
| CC1(c2ccccc2)C(=O)C(c2ccccc2)=Nc2nc3ccccc3n21 (configuration not stated) | % | 100 |
| Cc1ccc(C2=Nc3nc4ccccc4n3C(C)(c3ccc(C)cc3)C2=O)cc1 (configuration not stated) | % | 80 |
| C/C(=N\c1nc2ccccc2[nH]1)c1ccccc1 | % | 67 |

Now take the following compound into account.
Task: # lookup: inhibition of C/C(=N\c1nc2ccccc2[nH]1)c1ccc(C)cc1
Result: 84
